Form field: GI50 (one value per entry).
Test system: IGROV-1
Assay text: NCI tumour cell line growth inhibition, 48 h
The source made the active and inactive calls. No stated cut-off is given here; in the data, active = GI50 up to about 1.1 µM and inactive = higher.

O=C(/C=C/c1ccccc1O)c1cccs1 = > 100 µM (inactive)
COc1cc([C@@H]2c3cc4c(cc3[C@@H](NC(=O)c3cccc(N)c3)C3COC(=O)[C@@H]32)OCO4)cc(OC)c1O (stereo not given in full) = 6.05 µM (inactive)
OC1CN2CCS[C@H]2C(O)C1O (stereo not given in full) = > 100 µM (inactive)
CO/C(C)=N/CCC1=CCCCC1 = > 100 µM (inactive)

Lookup: Query: GI50; subject: COc1cc(NC(C)=O)ccc1C(=O)N/N=C/c1ccco1
Found: > 100 µM (inactive)

Lookup: Also O=C1OC2(C(F)(F)F)Oc3ccccc3CN2C12CCCCC2 (stereo not given) ?
Found: 48.4 µM (inactive)

Lookup: Proceed to CC(C)(C)OC(=O)NCC(=O)N(CCc1ccc(Cl)c(Cl)c1)CCN1CCCC1
Found: 15.8 µM (inactive)
